- Protocol Summary: activity coefficient (dimensionless); of the first substance listed, at infinite dilution; xn = mol fraction of the nth substance listed
- Particulars: 368.15 K; 101.33 kPa; Liquid; Chromatography; x1 = 0
The compounds listed here are annotated with their activity coefficient.
Measurement Name: activity coefficient

[[record]]
compound = "C#CCCC [1-pentyne] + CCCCCCCCCCCCn1cc[n+](C)c1.O=S(=O)([N-]S(=O)(=O)C(F)(F)F)C(F)(F)F"
measurement_name = "activity coefficient"
assay_result = 1.28

[[record]]
compound = "C=CCCCC [hex-1-ene] + CCCCCCCCCCCCn1cc[n+](C)c1.O=S(=O)([N-]S(=O)(=O)C(F)(F)F)C(F)(F)F"
measurement_name = "activity coefficient"
assay_result = 2.38

[[record]]
compound = "COC(C)=O [methyl ethanoate] + CCCCCCCCCCCCn1cc[n+](C)c1.O=S(=O)([N-]S(=O)(=O)C(F)(F)F)C(F)(F)F"
measurement_name = "activity coefficient"
assay_result = 0.606

[[record]]
compound = "CCC(C)(C)OC [2-methoxy-2-methylbutane] + CCCCCCCCCCCCn1cc[n+](C)c1.O=S(=O)([N-]S(=O)(=O)C(F)(F)F)C(F)(F)F"
measurement_name = "activity coefficient"
assay_result = 1.4

